- target_desc: UniProtKB Q12809
- Sequence (Q12809 whole entry): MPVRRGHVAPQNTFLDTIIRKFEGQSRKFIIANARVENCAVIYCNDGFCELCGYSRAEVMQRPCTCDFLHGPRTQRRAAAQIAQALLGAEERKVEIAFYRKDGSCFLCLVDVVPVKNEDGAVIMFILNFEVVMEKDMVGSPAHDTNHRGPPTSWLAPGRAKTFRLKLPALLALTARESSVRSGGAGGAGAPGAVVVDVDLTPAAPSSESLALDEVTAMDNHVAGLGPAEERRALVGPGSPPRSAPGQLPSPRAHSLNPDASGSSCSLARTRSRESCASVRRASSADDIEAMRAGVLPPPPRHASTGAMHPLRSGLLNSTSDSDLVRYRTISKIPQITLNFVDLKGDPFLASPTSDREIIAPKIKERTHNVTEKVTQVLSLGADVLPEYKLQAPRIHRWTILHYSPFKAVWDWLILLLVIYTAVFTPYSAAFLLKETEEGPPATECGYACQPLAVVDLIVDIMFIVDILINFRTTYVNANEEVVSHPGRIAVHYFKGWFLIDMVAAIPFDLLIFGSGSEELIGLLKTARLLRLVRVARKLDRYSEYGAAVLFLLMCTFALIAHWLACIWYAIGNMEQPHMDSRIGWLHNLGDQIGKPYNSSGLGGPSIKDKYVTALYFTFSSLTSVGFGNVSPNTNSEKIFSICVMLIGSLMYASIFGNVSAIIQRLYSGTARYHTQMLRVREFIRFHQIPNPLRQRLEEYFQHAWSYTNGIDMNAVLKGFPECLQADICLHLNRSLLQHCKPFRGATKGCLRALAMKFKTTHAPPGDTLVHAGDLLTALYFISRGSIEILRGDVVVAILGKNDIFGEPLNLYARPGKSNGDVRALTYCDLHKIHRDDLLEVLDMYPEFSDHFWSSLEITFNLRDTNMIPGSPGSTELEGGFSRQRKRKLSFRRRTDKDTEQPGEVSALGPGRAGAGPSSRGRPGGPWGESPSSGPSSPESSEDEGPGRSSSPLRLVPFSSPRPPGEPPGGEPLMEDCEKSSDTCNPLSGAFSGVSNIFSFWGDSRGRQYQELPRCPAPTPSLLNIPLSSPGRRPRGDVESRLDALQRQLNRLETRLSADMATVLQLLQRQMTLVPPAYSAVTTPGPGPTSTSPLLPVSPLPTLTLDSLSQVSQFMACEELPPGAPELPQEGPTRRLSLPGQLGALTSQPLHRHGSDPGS
- run_description: Inhibition of human ERG at 10 uM by patch clamp assay
recorded_endpoint: inhibition at 10 µM (%)
One number for each entry, in %.

Hey, can you go through the list below and give me inhibition at 10 µM for every item?
1. CC(=O)NC1CCN(Cc2ccc(OCCCc3ccc(Oc4ccccc4)nn3)cc2)CC1
2. OC1CCN(Cc2ccc(NCCCc3ccc(Oc4ccccc4)nn3)cc2)CC1

(A)
1. 13
2. 35

---

- run_description: Tmax in Wistar rat at 11.9 umol/kg, po
- Format: ADME, organism-based
- condition_notes: in vivo
recorded_endpoint: Tmax (h)
Answers are plain numbers, in h.

Notebook: COc1ccc(-c2ccc(CCCNc3ccc(CN4CCC(NC(C)=O)CC4)cc3)nn2)cc1 , Tmax read as 1.5

---

- run_description: Mean residence time in Wistar rat at 6.7 umol/kg, po
- Assay type: ADME, organism-based
- condition_notes: in vivo
recorded_endpoint: MRT (h)
One number for each entry, in h.

Notebook: CC(=O)NC1CCN(Cc2ccc(OCCCc3ccc(Oc4ccccc4)nn3)cc2)CC1 , MRT read as 2.9

---

- target_desc: 5-hydroxytryptamine receptor 2A (Homo sapiens)
- Sequence (P28223 whole entry): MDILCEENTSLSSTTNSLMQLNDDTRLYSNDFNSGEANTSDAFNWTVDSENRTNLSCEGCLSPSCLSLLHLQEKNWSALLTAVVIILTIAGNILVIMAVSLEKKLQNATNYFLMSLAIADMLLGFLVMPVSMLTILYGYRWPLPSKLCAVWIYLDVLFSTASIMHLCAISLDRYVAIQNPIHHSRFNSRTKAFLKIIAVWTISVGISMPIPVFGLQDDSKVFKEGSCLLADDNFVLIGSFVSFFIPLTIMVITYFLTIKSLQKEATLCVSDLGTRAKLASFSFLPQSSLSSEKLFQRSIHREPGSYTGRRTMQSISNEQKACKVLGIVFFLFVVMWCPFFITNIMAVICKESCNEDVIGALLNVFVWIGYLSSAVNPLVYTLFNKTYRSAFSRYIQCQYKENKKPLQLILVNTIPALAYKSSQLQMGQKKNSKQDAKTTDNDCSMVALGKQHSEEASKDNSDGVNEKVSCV
recorded_endpoint: pIC50
One number for each entry, as −log10 of the molar value.

In the examples that follow, each entry is paired with its recorded pIC50.
structure_string=CN(C(=O)/C=C/c1ccc(-c2ccc(Cl)cc2)cc1)c1ccc(CN2CCCCC2)cc1 recorded_endpoint=pIC50 value_measured=6.44
structure_string=Fc1ccc(-c2ccc(CCCNc3ccc(CN4CCCCC4)cc3)nn2)cc1 recorded_endpoint=pIC50 value_measured=7.47
structure_string=OC1CCN(Cc2ccc(OCCCc3ccc(-c4ccc(F)cc4)nn3)cc2)CC1 recorded_endpoint=pIC50 value_measured=6.62
structure_string=Clc1ccc(-c2ccc(CCCNc3ccc(CN4CCCCC4)cc3)cc2)cc1 recorded_endpoint=pIC50 value_measured=6.17
structure_string=CC(=O)NC1CCN(Cc2ccc(OCCCc3ccc(-c4ccc(F)cc4)nn3)cc2)CC1 recorded_endpoint=pIC50 value_measured=6.15
structure_string=CC(=O)NC1CCN(Cc2ccc(OCCCc3ccc(Oc4ccccc4)nn3)cc2)CC1 recorded_endpoint=pIC50 value_measured=5.02

Hey, can you go through the list below and give me pIC50 for every item?
1. O=C(/C=C/c1ccc(-c2ccc(Cl)cc2)cc1)Nc1ccc(CN2CCCCC2)cc1
2. OCC1CCN(Cc2ccc(OCCCc3ccc(-c4ccc(Cl)cc4)nn3)cc2)CC1
3. OC1CCN(Cc2ccc(OCCCc3ccc(-c4ccc(Cl)cc4)nn3)cc2)CC1
4. CN(CCCc1ccc(-c2ccc(Cl)cc2)cc1)c1ccc(CN2CCCCC2)cc1
5. Clc1ccc(-c2ccc(CCCNc3ccc(CN4CCCCC4)cc3)nn2)cc1
6. COc1ccc(-c2ccc(CCCNc3ccc(CN4CCC(O)CC4)cc3)nn2)cc1

(A)
5.71
6.10
5.85
6.19
6.86
5.05

---

- target_desc: Melanin-concentrating hormone receptor 1 (Homo sapiens, UniProt Q99705)
- Sequence (Q99705 whole entry): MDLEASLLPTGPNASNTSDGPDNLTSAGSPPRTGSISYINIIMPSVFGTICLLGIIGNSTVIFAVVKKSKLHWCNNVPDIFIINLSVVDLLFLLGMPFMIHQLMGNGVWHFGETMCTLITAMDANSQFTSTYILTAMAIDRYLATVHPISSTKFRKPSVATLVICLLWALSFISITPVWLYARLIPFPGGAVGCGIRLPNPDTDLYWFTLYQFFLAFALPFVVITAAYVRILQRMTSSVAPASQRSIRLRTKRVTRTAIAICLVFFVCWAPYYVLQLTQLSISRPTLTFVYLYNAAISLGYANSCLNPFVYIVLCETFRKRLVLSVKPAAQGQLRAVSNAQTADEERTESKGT
- run_description: Displacement of [125I-MCH] from human MCH receptor 1 expressed in CHO cell membranes by scintillation counting method
recorded_endpoint: IC50 (nM)
One number for each entry, in nM.

structure_string=COc1ccc(-c2ccc(CCCNc3ccc(CN4CCC(O)CC4)cc3)nn2)cc1 value_measured=20

Hey, can you go through the list below and give me IC50 for every item?
1. CC(=O)NC1CCN(Cc2ccc(OCCCc3ccc(-c4ccc(F)cc4)nn3)cc2)CC1
2. O[C@@H]1CCCN(Cc2ccc(OCCCc3ccc(-c4ccc(Cl)cc4)nn3)cc2)C1
3. Clc1ccc(-c2ccc(CCCNc3ccc(CN4CCCCC4)cc3)cc2)cc1
4. O=C(/C=C/c1ccc(-c2ccc(Cl)cc2)cc1)Nc1ccc(CN2CCCCC2)cc1
5. OC1CCN(Cc2ccc(NCCCc3ccc(OCc4ccccc4)nn3)cc2)CC1
6. COc1ccc(-c2ccc(CCCNc3ccc(CN4CCC(NC(C)=O)CC4)cc3)nn2)cc1

(A)
15
15
3
16
3
10

Hey, can you go through the list below and give me IC50 for every item?
1. O=C(COc1ccc(-c2ccc(Cl)cc2)cc1)Nc1ccc(CN2CCCCC2)cc1
2. CN(C(=O)/C=C/c1ccc(-c2ccc(Cl)cc2)cc1)c1ccc(CN2CCCCC2)cc1
3. CC(=O)NC1CCN(Cc2ccc(OCCCc3ccc(Oc4ccccc4)nn3)cc2)CC1
4. COc1ccc(-c2ccc(CCCNc3ccc(CN4CCCC4)cc3)nn2)cc1

(A)
94
634
10
95

Hey, can you go through the list below and give me IC50 for every item?
1. COc1ccc(-c2ccc(CCCNc3ccc(CN4CCCCC4)cc3)nn2)cc1
2. COc1ccc(-c2ccc(CCCNc3ccc(CN4CCOCC4)cc3)nn2)cc1
3. Clc1ccc(-c2ccc(CCCNc3ccc(CN4CCCCC4)cc3)nn2)cc1
4. OC1CCN(Cc2ccc(OCCCc3ccc(-c4ccc(F)cc4)nn3)cc2)CC1
5. O=C(CCc1ccc(-c2ccc(Cl)cc2)cc1)Nc1ccc(CN2CCCCC2)cc1
6. OC1CCN(Cc2ccc(NCCCc3ccc(Oc4ccccc4)nn3)cc2)CC1

(A)
[7, 20, 4, 186, 38, 24]
